# target_entity: hemagglutinin (HA) of influenza virus H7N3 A/NIBRG/60 (A/mallard/Netherlands/12/00) (influenza A virus)
# method_notes: cell-based or functional assay
readout_kind: average neutralization titer (nM)

INSERT INTO assay_data (binder, reported_value) VALUES
  ('MD2306 (bispecific antibody) EVQLVESGGGLVQPGGSLRLSCAVSISIFDIYAMDWYRQAPGKQRDLVATSFRDGSTNYADSVKGRFTISRDNAKNTLYLQMNSLKPEDTAVYLCHVSLYRDPLGVAGGMGVYWGKGALVTVSSGGGGSGGGGSEVQLVESGGGLVQPGGSLRLSCAVSISIFDIYAMDWYRQAPGKQRDLVATSFRDGSTNYADSVKGRFTISRDNAKNTLYLQMNSLKPEDTAVYLCHVSLYRDPLGVAGGMGVYWGKGALVTVSSGGGGSGGGGSEVQLVESGGGLVQPGGSLRLSCAATGFTLENKAIGWFRQTPGSEREGVLCISKSGSWTYYTDSMRGRFTISRDNAENTVYLQMDSLKPEDTAVYYCATTTAGGGLCWDGTTFSRLASSWGQGTQVTVSS', 15.4);
